B1: Transcription factor SOX-4, residues 60 to 127; numbered along this chain, Q06945 (parent)
chain: KRPMNAFMVWSQIERRKIMEQSPDMHNAEISKRLGKRWKLLKDSDKIPFIREAERLRLKHMADYPDYK

variants of: B1; assay: abundance fitness (aPCA) (normalised: wild type 0, dead -1); higher = more abundant; growth selection in yeast, the domain comes from the species named; conditions: Homo sapiens
Decide by abundance fitness: equal to or exceeding -0.2 means rule met, less means rule not met.

[[record]]
variantstring = "S44F"
classification = "rule not met"

[[record]]
variantstring = "K32V"
classification = "rule met"

[[record]]
variantstring = "P23E"
classification = "rule not met"

[[record]]
variantstring = "A28G"
classification = "rule met"

[[record]]
variantstring = "K68Y"
classification = "rule met"


Item I47A with abundance fitness of -0.2 or above? rule met

Please tell me: is the variant P65T at or over -0.2 in terms of abundance fitness? rule met

Is reported abundance fitness greater than or equal to -0.2 here: S31N rule met

Kindly determine if abundance fitness recorded for R55I is above or exactly -0.2. rule not met

Say whether H26D shows abundance fitness of -0.2 or more. rule met

Reported abundance fitness reaches at least -0.2 for N27D ? rule met

Tell me whether abundance fitness is at least -0.2 here: M61H rule met

# check: abundance fitness of H60N is greater than or equal to -0.2 rule met

Record W38M ; criterion: abundance fitness no lower than -0.2. Met? rule not met

Does the reported abundance fitness for L58W fall at or above the -0.2 mark? rule not met

// inclusive: abundance fitness at least -0.2? input: P23H rule not met

Check the entry F49R : does abundance fitness equal or exceed -0.2? rule not met

For this variant, is measured abundance fitness -0.2 or higher? P65R rule met

// inclusive: abundance fitness at least -0.2? input: M61C rule met

abundance fitness >= -0.2 for M25T ? rule met

Could you please find out whether D43S has abundance fitness that meets -0.2 or exceeds it? rule not met

Hello, I need to know if Y64Q has measured abundance fitness not below -0.2. Thanks! rule met
